Hello, the source for this data is ChEMBL document CHEMBL1134916, in case you need it.

molecular target: Sulfonylurea receptor 1, Kir6.2 (Homo sapiens, UniProt Q09428+Q14654); experiment: Inhibition of Beta-cell KATP channel; assay type: functional
Sequence (Q14654 whole entry): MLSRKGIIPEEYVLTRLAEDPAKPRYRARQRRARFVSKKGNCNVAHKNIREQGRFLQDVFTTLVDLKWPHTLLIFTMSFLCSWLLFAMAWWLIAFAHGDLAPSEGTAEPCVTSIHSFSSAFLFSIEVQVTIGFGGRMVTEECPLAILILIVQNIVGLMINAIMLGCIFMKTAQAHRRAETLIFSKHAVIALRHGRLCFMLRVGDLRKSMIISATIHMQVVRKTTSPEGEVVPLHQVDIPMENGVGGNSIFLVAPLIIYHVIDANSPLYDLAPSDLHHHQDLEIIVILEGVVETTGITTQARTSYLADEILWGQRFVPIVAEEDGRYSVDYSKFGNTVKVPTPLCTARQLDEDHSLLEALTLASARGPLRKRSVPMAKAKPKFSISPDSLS
Sequence (Q09428 whole entry): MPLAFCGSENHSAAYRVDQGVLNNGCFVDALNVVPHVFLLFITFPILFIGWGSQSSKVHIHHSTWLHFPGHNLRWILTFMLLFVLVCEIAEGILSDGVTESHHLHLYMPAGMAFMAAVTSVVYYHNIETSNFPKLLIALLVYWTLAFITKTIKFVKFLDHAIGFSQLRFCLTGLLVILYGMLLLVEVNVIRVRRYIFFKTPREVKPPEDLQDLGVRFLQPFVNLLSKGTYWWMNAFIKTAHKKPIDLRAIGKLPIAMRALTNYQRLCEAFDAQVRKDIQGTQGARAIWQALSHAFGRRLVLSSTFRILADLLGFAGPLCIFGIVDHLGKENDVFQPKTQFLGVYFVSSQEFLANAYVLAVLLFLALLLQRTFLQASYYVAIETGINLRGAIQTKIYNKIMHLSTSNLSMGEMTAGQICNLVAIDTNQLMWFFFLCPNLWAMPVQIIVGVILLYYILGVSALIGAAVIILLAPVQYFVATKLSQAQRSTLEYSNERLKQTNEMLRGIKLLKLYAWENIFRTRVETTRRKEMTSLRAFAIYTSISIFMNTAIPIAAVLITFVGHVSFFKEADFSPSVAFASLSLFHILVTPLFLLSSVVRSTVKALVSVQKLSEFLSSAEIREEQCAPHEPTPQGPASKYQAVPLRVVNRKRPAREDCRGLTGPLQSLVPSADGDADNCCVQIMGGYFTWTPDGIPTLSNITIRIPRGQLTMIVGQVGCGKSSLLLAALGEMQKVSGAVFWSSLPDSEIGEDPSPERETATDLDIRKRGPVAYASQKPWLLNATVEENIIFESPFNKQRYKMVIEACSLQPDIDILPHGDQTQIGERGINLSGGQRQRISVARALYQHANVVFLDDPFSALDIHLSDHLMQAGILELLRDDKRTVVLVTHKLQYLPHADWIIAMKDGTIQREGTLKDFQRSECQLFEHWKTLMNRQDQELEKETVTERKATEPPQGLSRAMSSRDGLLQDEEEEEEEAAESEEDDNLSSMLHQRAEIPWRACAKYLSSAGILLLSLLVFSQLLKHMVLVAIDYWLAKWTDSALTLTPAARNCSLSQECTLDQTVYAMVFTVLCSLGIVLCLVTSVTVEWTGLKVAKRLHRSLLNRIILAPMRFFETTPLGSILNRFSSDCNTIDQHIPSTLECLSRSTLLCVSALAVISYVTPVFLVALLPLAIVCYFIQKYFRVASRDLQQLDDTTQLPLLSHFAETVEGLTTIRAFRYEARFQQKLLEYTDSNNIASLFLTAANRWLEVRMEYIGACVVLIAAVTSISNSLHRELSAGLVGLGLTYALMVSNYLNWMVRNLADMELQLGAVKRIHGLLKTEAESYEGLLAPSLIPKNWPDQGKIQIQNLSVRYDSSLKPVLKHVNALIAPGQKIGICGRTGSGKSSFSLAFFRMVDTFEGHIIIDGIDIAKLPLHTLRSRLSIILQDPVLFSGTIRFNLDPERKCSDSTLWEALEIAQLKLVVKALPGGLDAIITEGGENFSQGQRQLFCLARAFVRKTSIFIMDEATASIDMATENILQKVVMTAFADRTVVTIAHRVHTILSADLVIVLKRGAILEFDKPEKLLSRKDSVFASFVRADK
readout-label: pEC50
As a rule, pEC50 stands for the negative log10 of the concentration, concentration in M.

The molecule listed as O=S1(=O)N=C(NC2CCC2)Nc2ccccc21 shows pEC50 equal to 5.71

The molecule listed as O=S1(=O)N=C(NC2CCC2)Nc2ccc(Cl)cc21 shows pEC50 equal to 6.71

The molecule listed as O=S1(=O)NC(NC2CCC2)=Nc2ccc(F)cc21 shows pEC50 equal to 6.45

The molecule listed as O=[N+]([O-])c1ccc2c(c1)S(=O)(=O)NC(NC1CCC1)=N2 shows pEC50 equal to 6.28

The molecule listed as COc1ccc2c(c1)S(=O)(=O)NC(NC1CCC1)=N2 shows pEC50 equal to 5.41

The molecule listed as Nc1ccc2c(c1)S(=O)(=O)NC(NC1CCC1)=N2 shows pEC50 equal to 4.51
